# experimentDescription: Cell toxicity / % cell viability by flow cytometry (cells in total events v. untreated)
# Format: cell-based, Human
# experimentalSetup: human, HeLa cells, Cell viability (%) (±St. Dev.; n = 3), FIG. 6B; HeLa; GFP 5 μM; shuttle 0.5 μM; 1 hour; read-out: Cell viability (%) (±St. Dev.; n = 3), FIG. 6B
Where no end group is shown, it is not given here.
testReadout: viability at 1 h, 0.5 µM (%)
Reply numerically in %, unit not repeated.

query: Fill blank: measured viability at 1 h, 0.5 µM of the sequence KWKLFKKIGAVLKVLTTGYGRKKRRQRRRC [CM18-TAT-Cys] is ____.
result: 88.4
